- ASSAY TARGET: Caspase 3 (Homo sapiens, UniProt P42574)
- Sequence (P42574 29-175 limits assumed, species assumed): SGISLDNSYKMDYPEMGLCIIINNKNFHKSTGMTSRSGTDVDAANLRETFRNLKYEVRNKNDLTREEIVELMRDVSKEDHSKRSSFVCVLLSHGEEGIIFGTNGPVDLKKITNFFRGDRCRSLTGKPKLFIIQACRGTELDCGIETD
- Sequence (P42574 176-277 limits assumed, species assumed): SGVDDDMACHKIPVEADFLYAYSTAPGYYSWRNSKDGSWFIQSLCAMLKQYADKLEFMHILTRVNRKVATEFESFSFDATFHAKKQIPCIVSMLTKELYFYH
- EXPERIMENT DESCRIPTION: Caspase 3 activity assay
- Type: biochemical
- CONDITION SUMMARY: 500 nM Ac-DEVD-AMC, 3.2 nM enzyme, 30 min pre-incubation at 25° C., 60 min at 37° C.; sigmoidal fit; AF: Autofluorescent; read-out: Casp3 (inhibition of cysteine protease activity)
Property: IC50; scope: individual compounds

COMPOUND: CCSc1nc2c(nc1C#N)C(=O)c1ccccc1-2 [Example 23]
MEASUREMENT UNITS: nM
PREFIX OPERATOR: >
IC50: 100000
--
COMPOUND: COc1ccc2c(c1OC)C(=O)c1nc(C#N)c(C#N)nc1-2 [Example 17d]
MEASUREMENT UNITS: nM
PREFIX OPERATOR: =
IC50: 1800
--
COMPOUND: COc1ccc(OC)c2c1C(=O)c1nc(C#N)c(C#N)nc1-2 [Example 17f]
MEASUREMENT UNITS: nM
PREFIX OPERATOR: =
IC50: 2000
--
COMPOUND: N#Cc1nc2c(nc1C#N)-c1ccccc1C2=O [Example 1]
MEASUREMENT UNITS: nM
PREFIX OPERATOR: =
IC50: 690
--
COMPOUND: COCCON=C1c2ccccc2-c2nc(C(N)=O)c(C#N)nc21 [Example 34c]
MEASUREMENT UNITS: nM
PREFIX OPERATOR: =
IC50: 1220
--
COMPOUND: N#Cc1nc2c(nc1C#N)-c1ccccc1C2=NOCCOc1ccccc1 [Example 27a]
MEASUREMENT UNITS: nM
PREFIX OPERATOR: >
IC50: 100000
--
COMPOUND: N#Cc1nc2c(nc1C#N)-c1ccc(O)cc1C2=O [Example 17j]
MEASUREMENT UNITS: nM
PREFIX OPERATOR: =
IC50: 47000
--
COMPOUND: C=CCON=C1c2ccccc2-c2nc(C#N)c(C#N)nc21 (mixture of isomers) [Example 13b]
MEASUREMENT UNITS: nM
PREFIX OPERATOR: >
IC50: 100000
--
COMPOUND: N#Cc1nc2c(nc1C#N)-c1ccc(Cl)cc1C2=O [Example 17g]
MEASUREMENT UNITS: nM
PREFIX OPERATOR: =
IC50: 290
--
COMPOUND: N#Cc1nc2c(nc1C#N)-c1ccccc1/C2=N/Oc1ccccc1 [Example 13e]
MEASUREMENT UNITS: nM
PREFIX OPERATOR: >
IC50: 100000
--
COMPOUND: Cc1cccc2c1Cc1nc(C#N)c(C#N)nc1-2 [Example 16c]
MEASUREMENT UNITS: nM
PREFIX OPERATOR: >
IC50: 100000
--
COMPOUND: N#Cc1nc2c(nc1C#N)C1(OCCO1)c1ccccc1-2 [Example 10]
MEASUREMENT UNITS: nM
PREFIX OPERATOR: >
IC50: 100000
--
COMPOUND: CCOC(=O)CO/N=C1\c2ccccc2-c2nc(C(N)=O)c(C#N)nc21 [Example 37]
MEASUREMENT UNITS: nM
PREFIX OPERATOR: =
IC50: 1160
--
COMPOUND: N#Cc1nc2c(nc1O)-c1ccc(Cl)cc1C2=O [Example 42]
MEASUREMENT UNITS: nM
PREFIX OPERATOR: >
IC50: 100000
--
COMPOUND: COc1nc2c(nc1C#N)C(=O)c1ccccc1-2 [Example 3]
MEASUREMENT UNITS: nM
PREFIX OPERATOR: >
IC50: 100000
--
COMPOUND: N#Cc1nc2c(nc1O)-c1ccccc1C2=O [Example 6]
MEASUREMENT UNITS: nM
PREFIX OPERATOR: =
IC50: 9300
--
COMPOUND: CON=C1c2ccccc2-c2nc(C#N)c(C#N)nc21 [Example 13a]
MEASUREMENT UNITS: nM
PREFIX OPERATOR: =
IC50: 52000
--
COMPOUND: CCOC(=O)CNC(=O)CO/N=C1\c2ccccc2-c2nc(C(N)=O)c(C#N)nc21 [Example 40]
MEASUREMENT UNITS: nM
PREFIX OPERATOR: =
IC50: 857
--
COMPOUND: Cc1cccc2c1C(=O)c1nc(C#N)c(C#N)nc1-2 [Example 17c]
MEASUREMENT UNITS: nM
PREFIX OPERATOR: =
IC50: 13000
--
COMPOUND: CCO/C(O)=C(\C#N)c1nc2c(nc1C#N)C(=O)c1ccccc1-2 [Example 22]
MEASUREMENT UNITS: nM
PREFIX OPERATOR: >
IC50: 100000
--
COMPOUND: N#Cc1nc2c(nc1N1CCC(F)(F)CC1)-c1ccccc1C2=O [Example 8]
MEASUREMENT UNITS: nM
PREFIX OPERATOR: >
IC50: 100000
--
COMPOUND: N#Cc1nc2sc3ccccc3c2nc1C#N [Example 19]
MEASUREMENT UNITS: nM
PREFIX OPERATOR: >
IC50: 100000
--
COMPOUND: CCON=C1c2ccccc2-c2nc(C#N)c(C#N)nc21 (mixture of isomers) [Example 13d]
MEASUREMENT UNITS: nM
PREFIX OPERATOR: >
IC50: 100000
--
COMPOUND: CON=C1c2ccccc2-c2nc(C(N)=O)c(C#N)nc21 [Example 34d]
MEASUREMENT UNITS: nM
PREFIX OPERATOR: =
IC50: 131
--
COMPOUND: N#Cc1nc2c(nc1C(N)=O)-c1ccccc1/C2=N\OCC(=O)NCC(=O)O [Example 41]
MEASUREMENT UNITS: nM
PREFIX OPERATOR: =
IC50: 1980
--
COMPOUND: N#CNc1nc2c(nc1C#N)C(=O)c1ccccc1-2 [Example 21]
MEASUREMENT UNITS: nM
PREFIX OPERATOR: >
IC50: 100000
--
COMPOUND: COc1cc2c(cc1OC)-c1nc(C#N)c(C#N)nc1C2=O [Example 17b]
MEASUREMENT UNITS: nM
PREFIX OPERATOR: =
IC50: 51000
--
COMPOUND: C=CCON=C1c2ccccc2-c2nc(C(N)=O)c(C#N)nc21 [Example 34a]
MEASUREMENT UNITS: nM
PREFIX OPERATOR: =
IC50: 245
--
COMPOUND: CC(=O)O/N=C1\c2ccccc2-c2nc(C(N)=O)c(C#N)nc21 (single isomer, unassigned) [Example 35]
MEASUREMENT UNITS: nM
PREFIX OPERATOR: =
IC50: 120
--
COMPOUND: N#Cc1nc2c(nc1C#N)-c1ccc(Cl)cc1C2=NOCCOc1ccccc1 [Example 27b]
MEASUREMENT UNITS: nM
PREFIX OPERATOR: >
IC50: 100000
--
COMPOUND: COCCOc1nc2c(nc1C#N)C(=O)c1ccccc1-2 [Example 5]
MEASUREMENT UNITS: nM
PREFIX OPERATOR: >
IC50: 100000
--
COMPOUND: N#Cc1nc2c(nc1C#N)-c1ccc(F)cc1C2=O [Example 17h]
MEASUREMENT UNITS: nM
PREFIX OPERATOR: =
IC50: 1000
--
COMPOUND: N#Cc1nc2c(nc1C#N)-c1ccc(Cl)cc1C2=NNC(N)=O [Example 43]
MEASUREMENT UNITS: nM
PREFIX OPERATOR: =
IC50: 64900
--
COMPOUND: N#Cc1nc2c(nc1C#N)-c1cc(Cl)c(Cl)cc1C2=O [Example 31]
MEASUREMENT UNITS: nM
PREFIX OPERATOR: =
IC50: 158
--
COMPOUND: N#Cc1nc2c(nc1C(N)=O)-c1ccccc1/C2=N\O [Example 11]
MEASUREMENT UNITS: nM
PREFIX OPERATOR: =
IC50: 2300

---

Property: log10 of IC50; scope: individual compounds
- ASSAY TARGET: UniProt P15374
- Sequence (P15374 1-230): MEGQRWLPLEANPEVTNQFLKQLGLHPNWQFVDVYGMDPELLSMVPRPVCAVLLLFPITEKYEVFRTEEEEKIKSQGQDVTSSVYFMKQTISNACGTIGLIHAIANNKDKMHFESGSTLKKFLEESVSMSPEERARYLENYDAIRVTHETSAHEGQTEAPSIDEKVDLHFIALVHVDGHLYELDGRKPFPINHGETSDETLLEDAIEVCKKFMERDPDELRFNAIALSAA
OBSERVABLE: log10 of IC50 (log10 of the value in nM)

COMPOUND: CCOC(=O)CNC(=O)CO/N=C1\c2ccccc2-c2nc(C(N)=O)c(C#N)nc21 [Example 40]
OBSERVABLE: log10 of IC50
OBSERVED RESULT: 2.39
//
COMPOUND: N#Cc1nc2c(nc1C#N)-c1ccccc1C2=NOCCOc1ccccc1 [Example 27a]
OBSERVABLE: log10 of IC50
OBSERVED RESULT: 4.02
//
COMPOUND: N#Cc1nc2c(nc1C#N)-c1ccc(Cl)cc1C2=NOCCOc1ccccc1 [Example 27b]
OBSERVABLE: log10 of IC50
OBSERVED RESULT: 3.23
//
COMPOUND: COc1ccc2c(c1OC)C(=O)c1nc(C#N)c(C#N)nc1-2 [Example 17d]
OBSERVABLE: log10 of IC50
OBSERVED RESULT: 2.89
//
COMPOUND: COc1ccc2c(c1)-c1nc(C#N)c(C#N)nc1C2=O [Example 17a]
OBSERVABLE: log10 of IC50
OBSERVED RESULT: 3.85
//
COMPOUND: N#Cc1nc2c(nc1C#N)-c1cc(Cl)c(Cl)cc1C2=O [Example 31]
OBSERVABLE: log10 of IC50
OBSERVED RESULT: 2.02
//
COMPOUND: N#Cc1nc2c(nc1C(N)=O)-c1ccccc1/C2=N\OCC(=O)O [Example 38]
OBSERVABLE: log10 of IC50
OBSERVED RESULT: 2.88
//
COMPOUND: Cc1cccc2c1C(=O)c1nc(C#N)c(C#N)nc1-2 [Example 17c]
OBSERVABLE: log10 of IC50
OBSERVED RESULT: 3.30

These data points were gathered from patent US8648076B2.
